Tested on: LPS-activated NO production in mouse peritoneal macrophages
Test: LPS-induced NO production in mouse peritoneal macrophages
Type: cell-based
Conditions: Peritoneal macrophage; mouse peritoneal macrophages; read-out: IC50, inhibition of LPS-activated NO production
measurementLabel: IC50 (µM)
One number for each entry, in µM.

Report IC50 for every entry below.
1. CC(=O)O[C@@H]1C[C@H]2C(C)(C)C(=O)C=C[C@]2(C)[C@H]2CC[C@@]3(C)[C@H](c4ccoc4)C(=O)[C@H]4O[C@]43[C@@]21C [compound 8, epoxyazadiradione]
2. CC(=O)O[C@@H]1C2C(C)(C)C(=O)C=C[C@]2(C)C2CC[C@@]3(C)[C@H](c4ccoc4)OC(=O)[C@H]4O[C@]43[C@]2(C)[C@@H]1O (some centres unmarked) [compound 5, andirolide H]
3. COC(=O)C(OC(C)=O)C1C2(C)CC34OC5(C)OC6(C7CC(=O)OC(c8ccoc8)C7(C)C(OC(C)=O)C(O)C6(O5)C13C)C(OC(=O)C(C)C)C4(O)C2OC(C)=O (centres unmarked) [compound 15, Carapanolide O]

OUTPUT:
1: 8.2; 2: 9.4; 3: 46

====

System: LPS-activated NO production in mouse peritoneal macrophages
Test: LPS-induced NO production in mouse peritoneal macrophages
Assay type: cell-based
Details: Mus musculus, Peritoneal macrophage; 100 µM; mean ± S.E.M. (n = 4); read-out: Inhibition (%) of LPS-activated NO production
measurementLabel: inhibition at 100 µM (%)
Answers are plain numbers, in %.

Worked cases, inhibition at 100 µM given:
compound	experimentalTarget	inhibition at 100 µM / %
CCC(C)C(=O)OC1C2(OC(C)=O)CC3(O)C4=CC(=O)OC(c5ccoc5)C4(C)CCC3C(C)(C2=O)C(CC(=O)OC)C1(C)C (centres unmarked) [compound 10, Carapanolide C]	LPS-activated NO production in mouse peritoneal macrophages	13.2
COC(=O)C(OC(C)=O)C1C2(C)CC34OC5(C)OC6(C7CC(=O)OC(c8ccoc8)C7(C)C(OC(C)=O)C(O)C6(O5)C13C)C(OC(=O)C(C)C)C4(O)C2OC(C)=O (centres unmarked) [compound 15, Carapanolide O]	LPS-activated NO production in mouse peritoneal macrophages	102
CC(=O)O[C@@H]1C[C@H]2C(C)(C)C(=O)C=C[C@]2(C)[C@H]2CC[C@@]3(C)[C@H](c4ccoc4)C(=O)[C@H]4O[C@]43[C@@]21C	LPS-activated NO production in mouse peritoneal macrophages	112
COC(=O)CC1C(C)C(=O)C2(CC3(O)C4CC(=O)OC(c5ccoc5)C4(C)CCC3(O)O2)C(OC(=O)C(C)C)C1(C)C (centres unmarked) [compound 17, carapanolide A]	LPS-activated NO production in mouse peritoneal macrophages	4.9

Kindly review the next compound as well.
INPUT: Recorded inhibition at 100 µM for CC(=O)O[C@@H]1C2C(C)(C)C(=O)C=C[C@]2(C)C2CC[C@@]3(C)[C@H](c4ccoc4)OC(=O)[C@H]4O[C@]43[C@]2(C)[C@@H]1O (some centres unmarked) [compound 5, andirolide H] , please?
OUTPUT: 99.7

====

System: primary cultured mouse hepatocytes
Assay: D-GalN-induced cytotoxicity in primary cultured mouse hepatocytes (MTT assay)
Conditions: Hepatocyte, read-out: Inhibition (%) of D-GalN-induced cytotoxicity
I'd appreciate it if you could supply inhibition at 100 µM values for the items below.
Numbers only, in %.

Worked cases, inhibition at 100 µM given:
compound	measurementLabel	assayValue
COC(=O)CC1C(C)C(=O)C2(CC3(O)C4CC(=O)OC(c5ccoc5)C4(C)CCC3(O)O2)C(OC(=O)C(C)C)C1(C)C (centres unmarked) [compound 17, carapanolide A]	inhibition at 100 µM	-7
CC1(C)C(=O)C=C[C@@]2(C)C1CC(=O)[C@]1(C)C2CC[C@@]2(C)[C@H](c3ccoc3)OC(=O)[C@H]3O[C@]321 (some centres unmarked)	inhibition at 100 µM	-8.9
CC(=O)O[C@@H]1CC2C(C)(C)C(=O)C=C[C@]2(C)C2CC[C@]3(C)C(=CC(=O)[C@@]3(O)c3ccoc3)[C@@]21C (stereo partly drawn) [compound 9, 17β-hydroxyazadiradione]	inhibition at 100 µM	-7.5

Report inhibition at 100 µM for every entry below.
1. COC(=O)C(OC(C)=O)C1C2(C)CC34OC5(C)OC6(C7CC(=O)OC(c8ccoc8)C7(C)C(OC(C)=O)C(O)C6(O5)C13C)C(OC(=O)C(C)C)C4(O)C2OC(C)=O (centres unmarked) [compound 15, Carapanolide O]
2. CC(=O)O[C@@H]1C[C@H]2C(C)(C)C(=O)C=C[C@]2(C)[C@H]2CC[C@@]3(C)[C@H](c4ccoc4)C(=O)[C@H]4O[C@]43[C@@]21C

OUTPUT:
1: -2.1; 2: -11.9

====

Assay: Cell viability of LPS-treated mouse peritoneal macrophages (MTT assay)
Format: cell-based
Details: LPS-treated TGC-induced mouse peritoneal macrophages, 30 µM, mean ± S.E.M. (n = 4), read-out: cell viability (%) in MTT assay (values in parentheses) (converted)
measurementLabel: viability at 30 µM (%)
One number for each entry, in %.

Worked cases, viability at 30 µM given:
compound	viability at 30 µM [%]
CCC(=O)OC1C2(O)C(OC(C)=O)C3(C)CC24OC2(C)OC15C1CC(=O)OC(c6ccoc6)C1(C)C(OC(C)=O)CC5(O2)C4(C)C3C(OC(C)=O)C(=O)OC (centres unmarked) [compound 14, Carapanolide Q]	95.5
COC(=O)CC1C(C)C(=O)C2(CC3(O)C4CC(=O)OC(c5ccoc5)C4(C)CCC3(O)O2)C(OC(=O)C(C)C)C1(C)C (centres unmarked) [compound 17, carapanolide A]	110
CCC(C)C(=O)OC1C2(OC(C)=O)CC3(O)C4=CC(=O)OC(c5ccoc5)C4(C)CCC3C(C)(C2=O)C(CC(=O)OC)C1(C)C (centres unmarked) [compound 10, Carapanolide C]	91.8
CCC(=O)OC1C2(OC(C)=O)C(OC(C)=O)C3(C)CC24OC2(C)OC15C(CC(=O)OC)C1(C)CC(c6occc6C1=O)C5(O2)C41COC(=O)CC31 (centres unmarked) [compound 16, guianolide A]	98.7

Kindly review the next compound as well.
INPUT: Recorded viability at 30 µM for CC(=O)O[C@@H]1C2C(C)(C)C(=O)C=C[C@]2(C)C2CC[C@@]3(C)[C@H](c4ccoc4)OC(=O)[C@H]4O[C@]43[C@]2(C)[C@@H]1O (some centres unmarked) [compound 5, andirolide H] , please?
OUTPUT: 109

====

Experiment: Cell viability of LPS-treated mouse peritoneal macrophages (MTT assay)
Format: cell-based
measurementLabel: viability at 3 µM
Number first, unit second.

INPUT: Recorded viability at 3 µM for CC(=O)O[C@@H]1CC2C(C)(C)C(=O)C=C[C@]2(C)C2CC[C@]3(C)C(=CC(=O)[C@@]3(O)c3ccoc3)[C@@]21C (stereo partly drawn) [compound 9, 17β-hydroxyazadiradione] , please?
OUTPUT: 95.4%

====

Assay: Cell viability of LPS-treated mouse peritoneal macrophages (MTT assay)
Type: cell-based
Settings: 10 µM, mean ± S.E.M. (n = 4), read-out: cell viability (%) in MTT assay (values in parentheses) (converted)
I'd appreciate it if you could supply viability at 10 µM values for the items below.
Answers are plain numbers, in %.

Worked cases, viability at 10 µM given:
compound	viability at 10 µM, %
COC(=O)C(OC(C)=O)C1C2(C)CC34OC5(C)OC6(C7CC(=O)OC(c8ccoc8)C7(C)C(OC(C)=O)C(O)C6(O5)C13C)C(OC(=O)C(C)C)C4(O)C2OC(C)=O (stereo not drawn) [compound 15, Carapanolide O]	108
CC(=O)O[C@@H]1C[C@H]2C(C)(C)C(=O)C=C[C@]2(C)[C@H]2CC[C@@]3(C)[C@H](c4ccoc4)C(=O)[C@H]4O[C@]43[C@@]21C	94.8

INPUT: Recorded viability at 10 µM for CCC(=O)OC1C2(O)C(OC(C)=O)C3(C)CC24OC2(C)OC15C1CC(=O)OC(c6ccoc6)C1(C)C(OC(C)=O)C(O)C5(O2)C4(C)C3CC(=O)OC (stereo not drawn) [compound 13, Carapanolide M] , please?
OUTPUT: 95.1

====

Test: Cell viability of LPS-treated mouse peritoneal macrophages (MTT assay)
Format: cell-based
Conditions: 100 µM, mean ± S.E.M. (n = 4), # = cytotoxic effects were observed, read-out: cell viability (%) in MTT assay (values in parentheses) (converted)
measurementLabel: viability at 100 µM (%)
Answers are plain numbers, in %.

Worked cases, viability at 100 µM given:
compound	viability at 100 µM / %
CCC(=O)OC1C2(O)C(OC(C)=O)C3(C)CC24OC2(C)OC15C1CC(=O)OC(c6ccoc6)C1(C)C(OC(C)=O)C(O)C5(O2)C4(C)C3CC(=O)OC (stereo not drawn) [compound 13, Carapanolide M]	112
COC(=O)C(OC(C)=O)C1C2(C)CC34OC5(C)OC6(C7CC(=O)OC(c8ccoc8)C7(C)C(OC(C)=O)C(O)C6(O5)C13C)C(OC(=O)C(C)C)C4(O)C2OC(C)=O (stereo not drawn) [compound 15, Carapanolide O]	109

INPUT: Recorded viability at 100 µM for CC(=O)O[C@@H]1C[C@H]2C(C)(C)C(=O)C=C[C@]2(C)[C@H]2CC[C@@]3(C)[C@H](c4ccoc4)C(=O)[C@H]4O[C@]43[C@@]21C , please?
OUTPUT: 10
